assay: label from the status in PepcDB records
EXPERIMENTAL_ENDPOINT: protein production

Please review the following examples before continuing.
>  <SEQUENCE>
MSSRQQDTAPCNHRFSGSVPVFSAAPCPHPAASFISLPAGSPYDEKRFVPAPRRHVPMLNYIWSGLIIGSLLFALTVDTQELVENRFRNETALPVALDFPDGYAPDARRQPVEIRIDSATYRDVYGVNAAPDPVYAGTLVQTQEGRKVEFDPDADLPEPLATIQSFHATDDNPALRGALQGTSRTTAGVGRTETALQFEPVRFRKLNDIAQAALNFAETAASLALSLIGVLGLMLGLVKIGEEAGLIESLTGIVQPILSPLFPNVPDDHPALANISLNLLANVFGLGNAATPLGIKAMEDLQELNPSDEKASDDMVMLLALNTSSVQLVPPSLLVAIMGLQINQLFFSITLATLCSTVAGILGTLALHRLPYFRATAPHRTADAEDPDE

>  <protein production>
failed

$$$$
>  <SEQUENCE>
MRKISIVIPVYNTEKYLKLSVDSVLSQSYQDWELILVDDGSKDGSGAICDKYASEDSRIKVYHTVNQGVTAARGYGVEQSTGEWICFLDADDTLADDALQVMLGKSADCDIVIGNKRIVSGNDVTEEWMNQDDRQLQAVEFLDGLIRNKISQYITGRIFRRILFDNGTICIPRELIMAEDFIMNVQLGNKAKKIAVIRDMVYGYHVYGESVSHTFRTNLEYESRFCDCLFSALKTGGYYEEVKEAFTFQKVRALKSAFMAQQGRVNLRHPFLQEVRKEAKSIGLSRGWKLFLYLLPLKYIGYIFFRSLNKLEHHHHHH

>  <protein production>
not failed

$$$$
>  <SEQUENCE>
MAGSVACRLRPGMAAGGTGMKRYVIFAAIGPLIGGLLLLFATTYQSGYWAHTNLTEVQKFFVVLFKSLQYSYLFGLLPALMMAAIDEIICHIRRVGPGGRVVIVGVIGFLATAFMYGNRGADAGVLQFVLYGLVGLVPATLSSWLANKFCAPVTAETKPASA

>  <protein production>
failed

$$$$
>  <SEQUENCE>
LEMKGKRMSVTAVMRELEKEENLYRRSGGGITLSGGEPLAQPEFARELLKACKAKGWHTAIETSGFTTKAVIDEVFPYVDLALTDIKAIDPEIHERNTGVNNRVILENLLRISFLTKVVVRIPVIPGVNDNSQEIHNIAEFARLMQNVDTIHLLPYHSFGENKYNLLGRQYPMGDTKSIEESQMAELKAMVESLGFNCHIGG

>  <protein production>
failed

$$$$
>  <SEQUENCE>
MIIRYATPDDIEDMVSIFIDAYNFPGPRESVKSSFEISLEVQPDGCLLAFLKDEPVGMGCIFFYNKQAWIGLMGVKKAYQRRGIGTEVFRRLLEIGRRKVDTIRLDASSQGYGLYKKFKFVDEYRTVRYELMERPIKRVEGVVEVNKIPNWVKEIDKKAFGDDRIRVLEAYMRRGARLLCAENEGFGLVYRGKIGPLVADSPRVAEKILLKAFQLGAREIIIPEVNKDALELIKIFKPSQVTSCMRMRLGSKIEEKVDIYYGILAYAKG

>  <protein production>
not failed

$$$$
>  <SEQUENCE>
AEDNLGPLPENWEMAYTENGEVYFIDHNTKTTSWLDPRCLNKQQ

>  <protein production>
not failed

$$$$
>  <SEQUENCE>
MAQISQLSAVILAGGLARRMNGNEKGLCLLHQQPLISHILARLTPQVCTIYFNINRSFATYQQLYPQLTYYSDKIADFQGPLSGILSGFEKIDSEYLLFVPCDTPFLPKNLVTKLTNSLIMNEATIAYAHDGEQAHPTIALIHRSITPALASYLASGERRLYHFFKTQKSIAVDFSDQKNAFQNFNSLADLEQFSTISATRVDQSRLLGITGYSGTGKTTLLEKLIPILTANGIKVGLIKHSHHNVDIDKNGKDSHRLRTAGANPTIIVCQQRWALMTETPQQAVDFQQLITKFDPESVDLILVEGFKDEQFAKIQLHRQVIKKPLPELDEWTIATATDYPIARPNLLDINQIDKIADFIQQWLNN

>  <protein production>
failed

$$$$
>  <SEQUENCE>
MEKKEMEKLCQRCKQSYTDLSNETSSCRFHPSFFVCRRHDDQKRYYELKPDDPPYAAKFYDCCGAEDPNAPGVKDLACDLSAGYCLEPLLALHTATE

>  <protein production>
failed

$$$$
>  <SEQUENCE>
MTNLGDLEIFARVVSTGSMSAAGRALGFSAAVISKRIKRLEDRLGARLLQRTTRQISLTEAGQGFYDRVLGILAGLEEAEAYASGRSSQVQGTLRISAPTSFGRMHIAPHLTGFMKDHPDLKLHIVLTDDFTDIVAEGFDLAIRIGELSDSSLVARKLAPVRRLLCAAPSYVARHGAPTEIGELAKHICLPAHNNDNWKLEGPDGSLSYRPEGPLVTNSSEIIREAVIAGAGIALRSTWDIGRELREGRLVQVLPQWEGSHKLTLSAVYPSRQFLPAKVRQFIDYLAALYGPVPYWEQ

>  <protein production>
failed

$$$$
>  <SEQUENCE>
MSLEKLDTNTFEQLIYDEGKACLVMFSRKNCHVCQKVTPVLEELRLNYEESFGFYYVDVEEEKTLFQRFSLKGVPQILYFKDGEYKGKMAGDVEDDEVEQMIADVLED

>  <protein production>
not failed

$$$$

For the 2 sequences below, give their protein production values.
1. MLHFQHTSIINAPPEVVWKFHERPDILQLLTPPWQPVRVVRREGGLEVGAITEFKLFLGPVPLTWLARHTECDKYRLFTDTQISGPFESWIHRHQFQPENGKTKLIDDVSYVMPGGETIEFIGGWLIQAQLEAMFRYRHYVTKRECE
2. MECKTMERITVNLGERSYPISIGAGLFANPALLSLSAKQKVVIVTNHTVAPLYAPAIISLLDHIGCQHALLELPDGEQYKTLETFNTVMSFLLEHNYSRDVVVIALGGGVIGDLVGFAAACYQRGVDFIQIPTTLLSQVDSSVGGKTAVNHPLGKNMIGAFYQPKAVVIDTDCLTTLPAREFAAGMAEVIKYGIIYDSAFFDWLEAQMEALYALDEQALTYAIARCCQIKAEVVAQDEKESGIRALLNLGHTFGHAIEAHMGYGNWLHGEAVSAGTVMAAKTAQLQGLIDASQFERILAILKKAHLPVRTPENMTFADFMQHMMRDKKVLAGELRLVLPTSIGTSAVVKGVPEAVIAQAIEYCRTV

# output
1: failed; 2: not failed

// provenance: a protein production outcome set (Wang et al. 2014)
